Provide the recorded pull-down binding Z-score for the entries that follow.
Tested on: TO-3-N3 (biotin conjugate)
Assay: pull-down binding Z-score (relative to library population); higher = stronger binding
Conditions: RNA library: Library-2
// keep it numeric: no unit symbol after the value

**Query** // lookup pull-down binding Z-score for AUUACUUGUGUUCUAUAUAAAGUAUU [hsa-mir-92a-2]
**Result** -0.393

**Query** Now consider CUCUCUGUUGCUCUGAAGGAG [hsa-mir-346] .
**Result** -0.271

**Query** Consider next the sequence UCCAUGAAAAGAACCCAUGGG [hsa-mir-4471] in the same way.
**Result** -0.455

**Query** Repeat with UGGAGGCUGCAGUGAGCCGAGAUCGAGCCACUGUACUCCA [hsa-mir-1273e]
**Result** 0.259

**Query** How about CUGUUGUUUCAGCUCGACAACAACAG [hsa-mir-3937] ?
**Result** -0.212

**Query** Would you kindly repeat that for AUCUUUCUGUGCUUUUGCUGUAGAUGCUGCUAAAGCUUACAAAGAU ?
**Result** 0.238

**Query** Next entry: GAUGGGAUUAGAAACCAUAUGUCUCAUC [hsa-mir-3617]
**Result** 0.0209

**Query** Queued: CUCAAACCCGUCCUUGAUUGGCUUGAAGAGAAGUUUAAGGAAGGUGUAGAG [DMSMaPseq_invitro_SARS-CoV-2_Motif_41]
**Result** -0.564

**Query** How about CUAAGCUAUGGACUGCUAUGGACUGCUAG [hsa-mir-4473] ?
**Result** -0.193

**Query** And for UUCAUUCAUUCGUUUGCACAUUCGGUGAA [hsa-mir-493] ?
**Result** -0.556

**Query** Now consider CUCUCCUCCAGCUCAGCUGGUCAGGAGAG [hsa-mir-3160-1] .
**Result** 1.09

**Query** Check AAGGUGGAGUUCUGGGUGCUGUUUUCCCACUCU [hsa-mir-378i] too.
**Result** 0.0547

**Query** Also check AAAAUUCAUGGCCUACAGCUGCCUCUUGCCAAACUGCACUGGAUUUU [hsa-mir-5010]
**Result** -0.25

**Query** Same lookup for GGACUUGCGGUUCA [hsa-mir-8057] , please.
**Result** -0.0023

**Query** Do the same for UUUGUCAUUUAAAAGUAAUGGCAAA [hsa-mir-548ae-2] please
**Result** 0.207

**Query** # iterate: UUUGCCAUUACUUUCAGUGGCAAA [hsa-mir-548aq]
**Result** -0.975

**Query** Again, but for AAGGGGGCCGUGGGGUGGGAGCUGGGGAA [G4_2A2_BCL2]
**Result** 8.07

**Query** Let us now turn to GCAGCCAAACUAAUGGUUGU
**Result** 0.609

**Query** Note, next up: GCAGCUAGUAUUCUCACUCCAGUUGC [hsa-mir-153-1]
**Result** -0.447

====

Consider the following sequences; for each one, report its pull-down binding Z-score.
System: TO-3-N3 (biotin conjugate)
Assay: pull-down binding Z-score (relative to library population); higher = stronger binding
Settings: RNA library: Library-2

**Query** So what pull-down binding Z-score did UCUGCAGGUUCGCACUGAUGCCUGCUCG [hsa-mir-6726] get with TO-3-N3 (biotin conjugate)?
**Result** 0.0628

**Query** GAGUUUUUAGUGCAGUUGGUAACAUCUGUUACACACCAUCAAAACUU , same question.
**Result** -0.305

**Query** // query: UGCCAUACUUUUAACGGCA [hsa-mir-548i-4]
**Result** -0.727

**Query** Likewise for GCUUGGAGAAAAGC [SHAPE_invitro_SARS-CoV-2_Motif_326] ?
**Result** -0.536

**Query** # iterate: GAGGAUGCAGGAGAGGAAGGGGGCUUCUUUUUGACGCCUACUUCAUCAGCUGCUCCUC [hsa-mir-4330]
**Result** 2.31

**Query** Consider next the sequence GAAGGCUAUUUGAACUCUACUAAUGUCACUAUUGCAACCUACUGUACUGGUUCUAUACCUUGUAGUGUUUGUCUUAGUGGUUUAGAUUCUUU in the same way.
**Result** -0.541

**Query** Follow-up entry: AUUCUGGCUAGGUGAUCAUCAGAAU [hsa-mir-5583-1]
**Result** -0.794

**Query** Then this sequence: GUUUAAGGAAGGUGUAGAGUUUCUUAGAGAC
**Result** -0.375

**Query** Follow-up entry: GAGUUUGGAGUCGGUGGGUGGAGCCAAACUG [hsa-mir-6860]
**Result** 1.13

**Query** Further, for UACCAGACUAUAACACAUAUAAAAAUACGUGUGAUGGUA [DMSMaPseq_invitro_SARS-CoV-2_Motif_221] ?
**Result** -0.929

**Query** What do we get for CCUUAGCACUAGCAGGAGG [hsa-mir-612] ?
**Result** -0.588

**Query** // repeat for UGGUAUCCUGACCG [hsa-mir-1973] and report
**Result** 0.627

**Query** Repeat for the following sequence: GGCCCCAGGAAGAAGGGCCUGGUGGAGCC [hsa-mir-6743]
**Result** 0.235

**Query** Next sequence: CCACAUAGGAGGGACAGCGGCCUUUCCAACAGG [hsa-mir-9500]
**Result** 0.253

**Query** Proceed to CCUUCUAAUGAGUAUGCUUAACUUGGUAGAAGG [hsa-mir-3914-1]
**Result** -0.108

**Query** Also, ACAUUACACCAUGU [SHAPE_invivo_SARS-CoV-2_Motif_439] please.
**Result** -0.779

**Query** // repeat for GGAAGACCUUAAAUUCCCUCGAGGACAAGGCGUUCC and report
**Result** -0.756

**Query** Also UGGGGAGUUGAACCUA [IAV_invivo_PB2_1_Motif_19+IAV_invivo_PB2_1_Motif_19] , if possible.
**Result** 0.448

**Query** Here is the next sequence: ACAAUUAUGAAAGAAAAGAAAUUGU [hsa-mir-3611]
**Result** -0.386

**Query** Field entry: GGCGUAAGUCUGAUACUUACCUG [U1snRNP5ss-10]
**Result** 0.212

**Query** Please answer likewise for CACAAGACUAGGCUUCCCUGUG [hsa-mir-3152]
**Result** 0.212

**Query** Next up: GUUGCAUGUUGUCACGGCCUCAAUGCAAU [hsa-mir-32]
**Result** -0.164

**Query** // query: GGUGUUUAUUACC
**Result** -0.454

**Query** Now this one: GCUUUAGUCUACUUCUUGCAGAGUAUAAACUUUGUAAGAAUAAUAAUGAGGC [SHAPE_invitro_SARS-CoV-2_Motif_467]
**Result** 0.0529

**Query** Let us now turn to UUCACAGACUCUCCAAAAGUCUGAA [hsa-mir-4670]
**Result** -0.362

**Query** And for UAUGUGAUUCUACUGCUCACUCAUAUA [hsa-mir-135a-1] ?
**Result** 0.402

**Query** What would you report for UGAUUUGUGACUUAAGAUUAAAAUCA [hsa-mir-23b] ?
**Result** -0.415

**Query** # repeat for GGGAUAUUUGCAUUAUACUUAUCC [hsa-mir-5009]
**Result** 0.0656

**Query** Ok, now CUGGGAAACUGUUAAAAUUCAGUGGUCCCAG [IAV_invivo_PB2_1_Motif_27+IAV_invivo_PB2_1_Motif_27]
**Result** -0.682

**Query** Subsequent entry: UCGUCAAUAGGGCGA [IAV_invivo_PB2_1_Motif_18+IAV_invivo_PB2_1_Motif_18]
**Result** -0.228

**Query** Another sequence: GAACUUUUACGGUGAACCAGGAGGUUC [hsa-mir-629]
**Result** 0.0537

====

System: TO-3-N3-2 (biotin conjugate)
Test: pull-down binding Z-score (relative to library population); higher = stronger binding
Conditions: RNA library: Library-2
Criterion: pull-down binding Z-score meeting or surpassing -0.2. Met: Criterion met. Not met: Criterion not met.

**Query** // inclusive: pull-down binding Z-score at least -0.2? input: GGGCUGUGACCACUGAAGUGGCAUUUGGCCU [IAV_invivo_M1_M2_7_Motif_9+IAV_invivo_M1_M2_7_Motif_9]
**Result** Criterion not met

**Query** Continue with AGUCACUUAGAUUACAUGUGACU [hsa-mir-888]
**Result** Criterion not met

**Query** Record: GCUUUGAUAUGGAACGUUAAAGAUUUCAUGUCAUUGU
**Result** Criterion not met

**Query** Subsequent entry: CUGAUUCAGAAAGAUCAUCGG [hsa-mir-127]
**Result** Criterion met

**Query** Same again, this time with GGGAUUAUCCU
**Result** Criterion not met

**Query** Try this sequence too: GCAGCCAGUCCUGUCUCACCGC [hsa-mir-6812]
**Result** Criterion met

**Query** Request: AUGGUGUUUGUGAGUUGAUUGACAUCGU [hsa-mir-6506]
**Result** Criterion not met

**Query** Then what about the sequence UGAAGCCCCGAGAUGCCUCACGUCUUCA [hsa-mir-6802] ?
**Result** Criterion met

**Query** Also check AGGCAUUAGGAUCCUUAUUCUUGCCU [hsa-mir-4788]
**Result** Criterion not met

**Query** And GUUUUCUACAAAGAAAAC ?
**Result** Criterion not met

**Query** Cool, now CUGAGAGUGUCAUGGUGGAGCCUCCG [hsa-mir-4784]
**Result** Criterion met

**Query** Please give the result for CUGUUCCACCAUUGAAGAGCUCAG [IAV_invivo_PB1_2_Motif_38+IAV_invivo_PB1_2_Motif_38] too.
**Result** Criterion met

**Query** Further, for UUGUUCUGAUGUACUACGACAA [hsa-mir-7-3] ?
**Result** Criterion not met

**Query** Next: CUUACUGCCCGGGCCGCCCUCAGUAA [hsa-mir-212]
**Result** Criterion met

**Query** Now try GCCGGAGCGGGC [hsa-mir-1181] .
**Result** Criterion met

**Query** Lookup GCUGCCCCUUUGCUCUCUGGGGUAGC [hsa-mir-3614]
**Result** Criterion met

**Query** Ok, now GGCCAUCUGGCC [hsa-mir-4252]
**Result** Criterion not met

These data points were gathered from the supplement of paper PMC11865577.
